test: total protein half-life in vivo (active degradation + dilution); higher = more stable protein; conditions: wild type E. coli NCM3722; growth: P-lim chemostat; doubling time 12 h
# reported total protein half-life in vivo; entries follow
readout.name: total protein half-life in vivo (h)

* MRYSKLTMLIPCALLLSACTTVTPAYKDNGTRSGPCVEGGPDNVAQQFYDYRILHRSNDITALRPYLSDKLATLLSDASRDNNHRELLTNDPFSSRTTLPDSAHVASASTIPNRDARNIPLRVDLKQGDQGWQDEVLMIQEGQCWVIDDVRYLGGSVHATAGTLRQSIENR | 13.7
* MSHRDTLFSAPIARLGDWTFDERVAEVFPDMIQRSVPGYSNIISMIGMLAERFVQPGTQVYDLGCSLGAATLSVRRNIHHDNCKIIAIDNSPAMIERCRRHIDAYKAPTPVDVIEGDIRDIAIENASMVVLNFTLQFLEPSERQALLDKIYQGLNPGGALVLSEKFSFEDAKVGELLFNMHHDFKRANGYSELEISQKRSMLENVMLTDSVETHKARLHNAGFEHSELWFQCFNFGSLVALKAEDAA | 9.24
* MTNQPTEIAIVGGGMVGGALALGLAQHGFAVTVIEHAEPAPFVADSQPDVRISAISAASVSLLKGLGVWDAVQAMRCHPYRRLETWEWETAHVVFDAAELKLPLLGYMVENTVLQQALWQALEAHPKVTLRVPGSLIALHRHDDLQELELKGGEVIRAKLVIGADGANSQVRQMAGIGVHAWQYAQSCMLISVQCENDPGDSTWQQFTPDGPRAFLPLFDNWASLVWYDSPARIRQLQNMNMAQLQAEIAKHFPSRLGYVTPLAAGAFPLTRRHALQYVQPGLALVGDAAHTIHPLAGQGVNLGYRDVDALIDVLVNARSYGEAWASYPVLKRYQMRRMADNFIMQSGMDLFYAGFSNNLPPLRFMRNLGLMAAERAGVLKRQALKYALGL | 7.66
